Reference for the values: patent US20150284342A1

- Assay Method Text: High Throughput (HT) Metabolic Stability Panel, human liver microsomes
- Condition Notes: 0.5 μM compound, human liver microsomes, 10 min incubation
- Method: Each compound was tested in duplicate.
Assay Readout: 0.5 μM HLM (% Remaining) (%)
Entry rule: numbers only, all in %.

Field 0.5 μM HLM (% Remaining) (entry CC(C)C[C@@H](C(=O)N[C@H]1N=C(c2ccccc2)c2ccccc2N(C)C1=O)[C@H](CCC(F)(F)F)C(N)=O [Comparative Compound 22, reference compound] ) reads 39

Field 0.5 μM HLM (% Remaining) (entry COCCNc1cccc2c1NC(=O)[C@@H](NC(=O)[C@H](CCC(F)(F)F)[C@H](CCC(F)(F)F)C(N)=O)N=C2c1ccccc1 [Example 21] ) reads 98

Field 0.5 μM HLM (% Remaining) (entry COc1cccc2c1NC(=O)[C@@H](NC(=O)[C@H](CCC(F)(F)F)[C@H](CCC(F)(F)F)C(N)=O)N=C2c1ccccc1 [Example 12] ) reads 100

Field 0.5 μM HLM (% Remaining) (entry NC(=O)[C@@H](CCC(F)(F)F)[C@@H](CCC(F)(F)F)C(=O)N[C@H]1N=C(c2ccccc2)c2ccc(Cl)c(Cl)c2NC1=O [Example 16] ) reads 80

Field 0.5 μM HLM (% Remaining) (entry CN1C(=O)[C@@H](NC(=O)[C@H](CCC(F)(F)F)[C@H](CCC(F)(F)F)C(N)=O)N=C(c2ccccc2)c2ccc(Cl)cc21 [Example 11] ) reads 97

Field 0.5 μM HLM (% Remaining) (entry COc1c(C#N)ccc2c1NC(=O)[C@@H](NC(=O)[C@H](CCC(F)(F)F)[C@H](CCC(F)(F)F)C(N)=O)N=C2c1ccccc1 [Example 15] ) reads 100

Field 0.5 μM HLM (% Remaining) (entry NC(=O)[C@@H](CCC(F)(F)F)[C@@H](CCC(F)(F)F)C(=O)N[C@H]1N=C(c2ccccc2)c2cccc(F)c2NC1=O [Example 17] ) reads 100

Field 0.5 μM HLM (% Remaining) (entry C=CC[C@H](C(N)=O)[C@@H](CC(C)C)C(=O)N[C@H]1N=C(c2ccccc2)c2ccccc2N(CCC)C1=O [Comparative Compound 25, reference compound] ) reads 2.7

Field 0.5 μM HLM (% Remaining) (entry COc1ccc2c(c1)NC(=O)[C@@H](NC(=O)[C@H](CCC(F)(F)F)[C@H](CCC(F)(F)F)C(N)=O)N=C2c1ccccc1 [Example 13] ) reads 100

Field 0.5 μM HLM (% Remaining) (entry COc1ccc2c(c1)C(c1ccccc1)=N[C@H](NC(=O)[C@H](CCC(F)(F)F)[C@H](CCC(F)(F)F)C(N)=O)C(=O)N2 [Example 14] ) reads 100

Field 0.5 μM HLM (% Remaining) (entry C=CC[C@H](C(N)=O)[C@@H](CC(C)C)C(=O)N[C@H]1N=C(c2ccccc2)c2cc(Cl)ccc2N(C)C1=O [Comparative Compound 23, reference compound] ) reads 19

Field 0.5 μM HLM (% Remaining) (entry CN1C(=O)[C@@H](NC(=O)[C@H](CC(F)(F)F)[C@H](CCC(F)(F)F)C(N)=O)N=C(c2ccccc2)c2ccccc21 [Example 3] ) reads 84

----------
- Assay Method Text: High Throughput (HT) Metabolic Stability Panel, human liver microsomes
- Condition Notes: 0.5 μM compound, human liver microsomes, 10 min incubation
Assay Readout: 0.5 μM HLM (% Remaining) (%)
Entry rule: numbers only, all in %.

Field 0.5 μM HLM (% Remaining) (entry NC(=O)[C@@H](CCC(F)(F)F)[C@@H](CCC(F)(F)F)C(=O)N[C@H]1N=C(c2ccccc2)c2cccc(Cl)c2NC1=O [Example 18] ) reads 100

Field 0.5 μM HLM (% Remaining) (entry CN1C(=O)[C@@H](NC(=O)[C@H](CCC(F)(F)F)[C@H](CCC(F)(F)F)C(N)=O)N=C(c2ccccc2)c2cc(Cl)ccc21 [Example 6] ) reads 100

Field 0.5 μM HLM (% Remaining) (entry CN1C(=O)[C@@H](NC(=O)[C@H](CCC(F)(F)F)[C@H](CCC(F)(F)F)C(N)=O)N=C(c2ccccc2)c2ccc(F)cc21 [Example 8] ) reads 96

Field 0.5 μM HLM (% Remaining) (entry COc1ccc2c(c1)NC(=O)[C@@H](NC(=O)[C@H](CCC(F)(F)F)[C@H](CCCC(F)(F)F)C(N)=O)N=C2c1ccccc1 [Example 20] ) reads 100

Field 0.5 μM HLM (% Remaining) (entry CN1C(=O)[C@@H](NC(=O)[C@H](CCC(F)(F)F)[C@H](CCC(F)(F)F)C(N)=O)N=C(c2ccccc2)c2cc(F)ccc21 [Example 10] ) reads 96

Field 0.5 μM HLM (% Remaining) (entry CN1C(=O)[C@@H](NC(=O)[C@H](CCC(F)(F)F)[C@H](CC(F)(F)F)C(N)=O)N=C(c2ccccc2)c2ccccc21 [Example 4] ) reads 100

Field 0.5 μM HLM (% Remaining) (entry NC(=O)[C@@H](CCC(F)(F)F)[C@@H](CCC(F)(F)F)C(=O)N[C@H]1N=C(c2ccccc2)c2ccccc2NC1=O [Example 2] ) reads 88

Field 0.5 μM HLM (% Remaining) (entry CCCC[C@H](C(N)=O)[C@@H](CC(C)C)C(=O)N[C@H]1N=C(c2ccc(Cl)cc2)c2ccccc2N(C)C1=O [Comparative Compound 24, reference compound] ) reads 21

Field 0.5 μM HLM (% Remaining) (entry COc1ccc2c(c1)N(C)C(=O)[C@@H](NC(=O)[C@H](CCC(F)(F)F)[C@H](CCC(F)(F)F)C(N)=O)N=C2c1ccccc1 [Example 7] ) reads 93

Field 0.5 μM HLM (% Remaining) (entry NC(=O)[C@@H](CCCC(F)(F)F)[C@@H](CCC(F)(F)F)C(=O)N[C@H]1N=C(c2ccccc2)c2ccccc2NC1=O [Example 19] ) reads 96

Field 0.5 μM HLM (% Remaining) (entry COc1ccc2c(c1)C(c1ccccc1)=N[C@H](NC(=O)[C@H](CCC(F)(F)F)[C@H](CCC(F)(F)F)C(N)=O)C(=O)N2C [Example 9] ) reads 100
